# composite z-score listing for each entry below
Target: E3 ubiquitin-protein ligase XIAP (Homo sapiens)
Experiment: XIAP binders, primary screen, biophysical, small-molecule microarray, fluorescence 635 nm (AID 1181);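 also: score merges 667 nm emission and signal to noise over triplicate slides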
Settings: small-molecule microarray binding, higher = more signal
Returns: the value as a bare number; no unit string appended.

Here are 2 compounds together with their reported answers.
compound	endpointLabel	observedResult
CCCC[C@@H](O)C1=C(C)C[C@H]2C(=O)N(Cc3ccccc3)C(=O)[C@H]2[C@H]1CO	composite z-score	-0.0911
COC(=O)[C@H](C)NC(=O)CCC1CC(OC(=O)NCc2ccc3c(c2)OCO3)CC2(CCCC(COC(=O)NCCOc3ccccc3)O2)O1 (stereo not given in full)	composite z-score	-0.105

The recorded composite z-score for CCN1C(=O)[C@H]2[C@H]3[C@H](O)[C@H](O)CC(=NOC[C@@H](C)[C@H](OCc4ccccc4)C(C)C)[C@@H]3CC[C@H]2C1=O is -0.0599

So for C=CC[C@]1(C(=O)NCc2ccccc2)N=C(c2ccc(OCCCO)cc2)O[C@H]1c1ccccc1 , the logged composite z-score turned out to be -0.102

Record summary for CCOC(=O)[C@H](Cc1ccccc1)NC(=O)CCC1CC(OC(=O)NCc2ccc3c(c2)OCO3)CC2(CCCC(COC(=O)NCc3ccccc3)O2)O1 (stereo not given in full) : reported composite z-score = -0.0089

Sample Cc1cc2c(c(=O)o1)[C@H](O)[C@H]1O[C@H]1C2=O ; composite z-score observed: -0.176

Lab note: measured composite z-score of O=C1[C@H]2[C@H]3[C@H](O)[C@H](O)CC(=NOCc4ccccc4)[C@H]3CC[C@H]2C(=O)N1c1cccc(Oc2ccccc2)c1 was -0.193

composite z-score reading for CN(C)CCCNC(=O)[C@@H]1c2ccccc2C(=O)N(Cc2ccccc2)[C@H]1c1ccc(CO)cc1 : -0.0926

The measured composite z-score associated with CCOC(=O)CCN1C(=O)[C@H]2[C@H]3[C@H](O)C=CC(=O)[C@@H]3CC[C@H]2C1=O reads 0.0356

In plain terms, Cc1ccc(C2CC=C(C(=O)O)CN2S(=O)(=O)c2ccc(C)cc2)cc1 (stereo not given) has a documented composite z-score of -0.102
